The measurements presented in this section are drawn from the RepoRT retention time repository (doi:10.1016/j.jchromb.2020.122105).

Test details: RP, Waters ACQUITY UPLC BEH C18, 100 × 2.1 mm, 1.7 µm, 0.1 mL/min, estimated dead time 2.2 min; A: water + 0.1% formic acid, pH 3; B: methanol + 0.1% formic acid, pH 3; gradient (min/%B) 0/5 5/5 25/95 25.1/100 35/100 35.1/5 45/5
Condition description: stereoisomer not certain
Parameter: LC retention time (min)
Output spec: scalar in min, unitless text.

In the examples that follow, each entry is paired with its recorded LC retention time.
Compound: Nc1ncnc2c1ncn2[C@@H]1O[C@H](CSCC[C@H]([NH3+])C(=O)[O-])[C@@H](O)[C@H]1O
LC retention time, min: 2.67
//
Compound: CC(=O)N[C@H](Cc1c[nH]c2ccccc12)C(=O)O
LC retention time, min: 17.6
//
Compound: O=C(O)CCCCCCCC(=O)O
LC retention time, min: 19.9
//
Compound: OCC1OC(OCC2OC(OC3(CO)OC(CO)C(O)C3O)C(O)C(O)C2O)C(O)C(O)C1O [D-(+)-RAFFINOSE]
LC retention time, min: 2.67
//
Compound: N[C@@H](Cc1ccc(O)c([N+](=O)[O-])c1)C(=O)O
LC retention time, min: 10.9
//
Compound: O=C([O-])CCc1ccccc1O [3-(2-HYDROXYPHENYL)PROPANOATE]
LC retention time, min: 18.3
//
Compound: CC(=O)N[C@@H](Cc1ccccc1)C(=O)O
LC retention time, min: 17.7
//
Compound: CC(=O)NC(CCC(=O)O)C(=O)O (racemic)
LC retention time, min: 4.43

Problem: Which LC retention time value belongs to Nc1ccccc1S(=O)(=O)O ?
Solution: 5.22
